Please provide measured TGI for the entries that follow.
# Tested on: HCT-15 colon
# Test details: NCI tumour cell line growth inhibition, 48 h

Compound	Recorded result
O=C1CCC2SC1CCC2=O	> 100 µM
[N-]=[N+]=Nc1ccc2c(c1)Sc1ccccc1N2CCCCCl	> 100 µM

Count: 6. Required value per item: TGI.
1. CC1(O)/C(=N/O)CC2CC1C2(C)C (stereo not given)
2. CCOC(=O)C1C(=O)c2ccccc2CN1Cc1ccccc1 (stereo not given)
3. O=C(/C=C/c1ccc(O)cc1)NCCc1ccc(O)cc1
4. O=c1cc2ccccc2nn1-c1ccccc1Cl
5. C=C1C(=O)OC2CC3(CO3)C3C(O)C(O)CC3(C)CC12 (stereo not given)
6. CC(C)CC1c2[nH]c3ccccc3c2C[C@H]2C(=O)NC(CCC(=O)OC(C)(C)C)C(=O)N12 (stereo not given in full)

["> 100 µM", "> 100 µM", "> 12.5 µM", "> 100 µM", "34.1 µM", "> 100 µM"]

Count: 4. Required value per item: TGI.
1. CC(C)(C)N1NC1C1NN1C(C)(C)C (stereo not given)
2. Cc1cc(S(=O)(=O)Nc2nnc(-c3ccccc3)c(-c3ccccc3)n2)c(SCc2ccccc2)cc1Cl
3. COc1ccc(CN(CCc2c[nH]c3ccccc23)Cc2ccc(OC)cc2)cc1
4. COc1ccc(OC)c2nc3c(C(=O)NCCN(C)C)cccc3nc12

1: > 100 µM; 2: 43.3 µM; 3: > 100 µM; 4: > 51.5 µM

Count: 3. Required value per item: TGI.
1. CC(C)(O)C1OCC(C2CCC3(C)C4=CCC5C(C)(C)C(O)CCC5(C)C4CCC23C)CC1O (stereo not given)
2. O=C1OC(=O)C2C1C1(c3ccccc3)C(c3ccccc3)=C(c3ccccc3)C2(c2ccccc2)S1=O (stereo not given)
3. COc1ccc(/C=C\c2cc(OC)c(OC)c(OC)c2)cc1OCC(=O)Nc1nc2ccc(C(F)(F)F)cc2s1

["28 µM", "> 100 µM", "> 100 µM"]
